Test system: Echinochloa crus-galli (ECHCG)
Experiment: Pre-emergence biological efficacy, glasshouse, 1000 g/ha, evaluated after 13 days (100=total damage to plant; 0=no damage to plant)
Format: in vivo
Conditions: Echinochloa crus-galli, 312 h, rate 1,000 g/ha, read-out: Percentage damage caused to weed species, pre-emergence, ECHCG
// reported pest or weed control at 1000 g/ha for each item listed

- Compound: "Cc1c[nH]c2nc(C3CC3)nc(C(=O)O)c12 [Compound 1-3]"
  pest or weed control at 1000 g/ha (%): 0
- Compound: "COC(=O)c1nc(-c2ccc(Cl)c(OC)c2F)nc2c1N(C(C)C)CCN2C(C)C [Compound 93-166]"
  pest or weed control at 1000 g/ha (%): 0
- Compound: "COC(=O)c1nc(-c2ccc(Cl)c(OC)c2F)cc2c1ccn2Cc1ccco1 [Compound 32-62]"
  pest or weed control at 1000 g/ha (%): 30
- Compound: "COC(=O)c1nc(C2CC2)nc2[nH]c(C)cc12 [Compound 1-6]"
  pest or weed control at 1000 g/ha (%): 0
- Compound: "COC(=O)c1nc(-c2ccc(Cl)c(N(C)C)c2F)nc2[nH]c(C)c(C)c12 [Compound 1-120]"
  pest or weed control at 1000 g/ha (%): 0
- Compound: "COC(=O)c1nc(-c2ccc(Cl)c(OC)c2F)nc2[nH]c(C)cc12 [Compound 1-66]"
  pest or weed control at 1000 g/ha (%): 40
- Compound: "CCCCCC(C)OC(=O)c1nc(-c2ccc(Cl)c(OC)c2F)nc2[nH]cc(C)c12 (stereo not shown) [Compound 1-79]"
  pest or weed control at 1000 g/ha (%): 0
- Compound: "COc1c(Cl)ccc(-c2nc(C(=O)O)c3cc[nH]c3n2)c1F [Compound 1-61]"
  pest or weed control at 1000 g/ha (%): 0
- Compound: "COC(=O)c1nc(-c2ccc(Cl)c(OC)c2F)nc2scc(C)c12 [Compound 21-64]"
  pest or weed control at 1000 g/ha (%): 0
- Compound: "COc1c(Cl)ccc(-c2nc(C(=O)O)c3c(C)cn(Cc4ccccc4[N+](=O)[O-])c3n2)c1F [Compound 8-63]"
  pest or weed control at 1000 g/ha (%): 0
- Compound: "Cc1cc2c(C(=O)O)nc(-c3ccc(Cl)c(F)c3)nc2n1Cc1ccccc1[N+](=O)[O-] [Compound 8-21]"
  pest or weed control at 1000 g/ha (%): 0
- Compound: "COc1c(Cl)ccc(-c2nc(C(=O)O)c3c(C)cn(Cc4ccc(F)cc4)c3n2)c1F [Compound 9-63]"
  pest or weed control at 1000 g/ha (%): 0
- Compound: "CCCCCC(C)OC(=O)c1nc(-c2ccc(Cl)c(OC)c2F)cc2[nH]cc(C)c12 (stereo not shown) [Compound 22-79]"
  pest or weed control at 1000 g/ha (%): 10

====

// reported pest or weed control at 1000 g/ha for each item listed
System: Ipomoea hederaceae (IPOHE)
Assay: Pre-emergence biological efficacy, glasshouse, 1000 g/ha, evaluated after 13 days (100=total damage to plant; 0=no damage to plant)
Format: in vivo
Settings: Ipomoea, 312 h, rate 1,000 g/ha, read-out: Percentage damage caused to weed species, pre-emergence, IPOHE
Experimental: Seeds of Alopecurus myosuroides (ALOMY), Setaria faberi (SETFA), Echinochloa crus-galli (ECHCG), Solanum nigrum (SOLNI), Amaranthus retroflexus (AMARE) and Ipomoea hederaceae (IPOHE) were sown in standard soil in pots. […] The test plants were then grown under controlled conditions in the glasshouse (at 24/16° C., day/night; 14 hours light; 65% humidity) and watered twice daily. […]

- Molecule: "COC(=O)c1nc(-c2ccc(Cl)c(OC)c2F)nc2c1N(Cc1ccc(OC)cc1OC)C(C)N2Cc1ccc(OC)cc1OC (stereo not shown)"
  System: "Ipomoea hederaceae (IPOHE)"
  Value units: "%"
  pest or weed control at 1000 g/ha: 0
- Molecule: "CCCCCC(C)OC(=O)c1nc(-c2ccc(Cl)c(OC)c2F)cc2[nH]cc(C)c12 (stereo not shown)"
  System: "Ipomoea hederaceae (IPOHE)"
  Value units: "%"
  pest or weed control at 1000 g/ha: 30
- Molecule: "COC(=O)c1nc(Cl)nc2c1cc(C)n2Cc1ccco1"
  System: "Ipomoea hederaceae (IPOHE)"
  Value units: "%"
  pest or weed control at 1000 g/ha: 0
- Molecule: "COC(=O)c1nc(-c2ccc(Cl)c(OC)c2F)nc2c1cc(C)n2Cc1ccco1"
  System: "Ipomoea hederaceae (IPOHE)"
  Value units: "%"
  pest or weed control at 1000 g/ha: 0

====

System: Echinochloa crus-galli (ECHCG)
Assay: Pre-emergence biological efficacy, glasshouse, 1000 g/ha, evaluated after 13 days (100=total damage to plant; 0=no damage to plant)
Format: in vivo
Conditions: Echinochloa crus-galli, 312 h, rate 1,000 g/ha, read-out: Percentage damage caused to weed species, pre-emergence, ECHCG
// reported pest or weed control at 1000 g/ha for each item listed
Measured property: pest or weed control at 1000 g/ha (%)

- Molecule: "COC(=O)c1nc(-c2ccc(Cl)c(OC)c2F)nc2c1NC(C)C(C)N2 (stereo not drawn)"
  Measurement: 0
- Molecule: "COC(=O)c1nc(-c2ccc(Cl)c(OC)c2F)nc2c1Nc1ccccc1N2"
  Measurement: 0
- Molecule: "COC(=O)c1nc(C2CC2)nc2c1ccn2Cc1ccccc1[N+](=O)[O-]"
  Measurement: 0
- Molecule: "O=C(O)c1nc(C2CC2)nc2c1ccn2Cc1ccccc1[N+](=O)[O-]"
  Measurement: 0
- Molecule: "COc1c(Cl)ccc(-c2nc(C(=O)OCc3ccccc3)c3c(C)c[nH]c3n2)c1F"
  Measurement: 0
- Molecule: "COC(=O)c1nc(-c2ccc(Cl)c(OC)c2F)nc2c1N(Cc1ccc(OC)cc1OC)C(C)N2Cc1ccc(OC)cc1OC (stereo not drawn)"
  Measurement: 0
- Molecule: "COC(=O)c1nc(-c2ccc(Cl)c(OC)c2F)cc2c1c(C)cn2S(=O)(=O)c1ccc(C)cc1"
  Measurement: 10
- Molecule: "COC(=O)c1nc(C2CC2)nc2[nH]cc(C)c12"
  Measurement: 30
- Molecule: "COC(=O)c1nc(Cl)cc2[nH]cc(C)c12"
  Measurement: 20
- Molecule: "COc1c(Cl)ccc(-c2nc(C(=O)O)c3cc(C)n(CC4CC4)c3n2)c1F"
  Measurement: 0
- Molecule: "COc1c(Cl)ccc(-c2nc(C(=O)O)c3c(C)cn(S(=O)(=O)c4ccc(C)cc4)c3n2)c1F"
  Measurement: 0
- Molecule: "COC(=O)c1nc(-c2ccc(Cl)c(OC)c2F)nc2[nH]cc(C)c12"
  Measurement: 30
- Molecule: "COC(=O)c1nc(Cl)cc2[nH]ccc12"
  Measurement: 0
- Molecule: "COC(=O)c1nc(-c2ccc(Cl)c(OC)c2F)nc2c1c(C)cn2Cc1ccc(C(F)(F)F)o1"
  Measurement: 0
- Molecule: "COC(=O)c1nc(-c2ccc(Cl)c(OC)c2F)nc2c1cc(C)n2Cc1ccccc1[N+](=O)[O-]"
  Measurement: 0
- Molecule: "COC(=O)c1nc(-c2ccc(Cl)c(OC)c2F)nc2nc3ccccc3nc12"
  Measurement: 20
- Molecule: "O=C(O)c1nc(-c2ccc(Cl)c(F)c2)nc2c1ccn2Cc1ccccc1[N+](=O)[O-]"
  Measurement: 0
- Molecule: "Cc1cc2c(C(=O)O)nc(-c3ccc(Cl)c(F)c3)nc2n1CC1CC1"
  Measurement: 0
- Molecule: "O=C(O)c1nc(-c2ccc(Cl)c(F)c2)nc2c1ccn2Cc1ncccc1Cl"
  Measurement: 0
- Molecule: "COC(=O)c1nc(-c2ccc(Cl)c(OC)c2F)nc2ncccc12"
  Measurement: 0
- Molecule: "COc1c(Cl)ccc(-c2nc(C(=O)O)c3c(n2)N(C)CCN3C)c1F"
  Measurement: 0
- Molecule: "COC(=O)c1nc(-c2ccc(Cl)c(OC)c2F)nc2[nH]c(C)c(C)c12"
  Measurement: 0
- Molecule: "COC(=O)c1nc(-c2ccc(Cl)c(OC)c2F)nc2c1N(Cc1ccccc1)CCN2Cc1ccccc1"
  Measurement: 0
- Molecule: "CCOC(=O)c1nc(-c2ccc(Cl)c(OC)c2F)nc2[nH]cc(C)c12"
  Measurement: 0
- Molecule: "COC(=O)c1nc(-c2ccc(Cl)c(F)c2)nc2c1ccn2Cc1ccccc1[N+](=O)[O-]"
  Measurement: 0
- Molecule: "COc1c(Cl)ccc(-c2cc3[nH]cc(C)c3c(C(=O)OCc3ccccc3)n2)c1F"
  Measurement: 0
- Molecule: "CCCCOCCOC(=O)c1nc(-c2ccc(Cl)c(OC)c2F)nc2[nH]cc(C)c12"
  Measurement: 0

====

Tested on: Amaranthus retroflexus (AMARE)
Test: Pre-emergence biological efficacy, glasshouse, 1000 g/ha, evaluated after 13 days (100=total damage to plant; 0=no damage to plant)
Format: in vivo
Settings: Amaranthus retroflexus, 312 h, rate 1,000 g/ha, read-out: Percentage damage caused to weed species, pre-emergence, AMARE
Measured property: pest or weed control at 1000 g/ha

- Molecule: "COC(=O)c1nc(-c2ccc(Cl)c(F)c2)nc2[nH]c(C)cc12"
  Measured property: "pest or weed control at 1000 g/ha"
  Measurement: "0%"
- Molecule: "COc1c(Cl)ccc(-c2nc(C(=O)O)c3cc(C)n(CC4CC4)c3n2)c1F"
  Measured property: "pest or weed control at 1000 g/ha"
  Measurement: "0%"
- Molecule: "COc1c(Cl)ccc(-c2nc(C(=O)O)c3c(C)cn(Cc4ccccc4)c3n2)c1F"
  Measured property: "pest or weed control at 1000 g/ha"
  Measurement: "0%"
- Molecule: "COC(=O)c1nc(-c2ccc(Cl)c(F)c2)nc2c1ccn2Cc1ccccc1"
  Measured property: "pest or weed control at 1000 g/ha"
  Measurement: "0%"
- Molecule: "COC(=O)c1nc(C2CC2)nc2c1Nc1ccccc1N2"
  Measured property: "pest or weed control at 1000 g/ha"
  Measurement: "0%"
- Molecule: "COC(=O)c1nc(-c2ccc(Cl)c(OC)c2F)nc2c1NCCN2Cc1ccccc1"
  Measured property: "pest or weed control at 1000 g/ha"
  Measurement: "0%"
- Molecule: "COc1c(Cl)ccc(-c2nc(C(=O)O)c3cc(C)n(Cc4ccccc4)c3n2)c1F"
  Measured property: "pest or weed control at 1000 g/ha"
  Measurement: "0%"
- Molecule: "COC(=O)c1nc(C2CC2)nc2[nH]ccc12"
  Measured property: "pest or weed control at 1000 g/ha"
  Measurement: "30%"
- Molecule: "COC(=O)c1nc(-c2ccc(Cl)c(OC)c2F)nc2c1N(C)CCN2C"
  Measured property: "pest or weed control at 1000 g/ha"
  Measurement: "0%"
- Molecule: "COc1c(Cl)ccc(-c2nc(C(=O)OC(C)C)c3c(C)c[nH]c3n2)c1F"
  Measured property: "pest or weed control at 1000 g/ha"
  Measurement: "50%"
- Molecule: "COC(=O)c1nc(Cl)cc2[nH]ccc12"
  Measured property: "pest or weed control at 1000 g/ha"
  Measurement: "0%"
- Molecule: "O=C(O)c1nc(-c2ccc(Cl)c(F)c2)nc2c1ccn2Cc1ccccc1[N+](=O)[O-]"
  Measured property: "pest or weed control at 1000 g/ha"
  Measurement: "0%"
- Molecule: "COC(=O)c1nc(-c2ccc(Cl)c(F)c2)nc2c1ccn2CC1CC1"
  Measured property: "pest or weed control at 1000 g/ha"
  Measurement: "0%"
- Molecule: "COc1c(Cl)ccc(-c2cc3[nH]cc(C)c3c(C(=O)OCc3ccccc3)n2)c1F"
  Measured property: "pest or weed control at 1000 g/ha"
  Measurement: "0%"
- Molecule: "CCCCOCC(C)OC(=O)c1nc(-c2ccc(Cl)c(OC)c2F)nc2[nH]cc(C)c12 (stereo not shown)"
  Measured property: "pest or weed control at 1000 g/ha"
  Measurement: "20%"
- Molecule: "COC(=O)c1nc(Cl)cc2[nH]cc(C)c12"
  Measured property: "pest or weed control at 1000 g/ha"
  Measurement: "100%"
- Molecule: "COC(=O)c1nc(-c2ccc(Cl)c(OC)c2F)nc2scc(C)c12"
  Measured property: "pest or weed control at 1000 g/ha"
  Measurement: "0%"
- Molecule: "COC(=O)c1nc(Cl)nc2[nH]c(C)cc12"
  Measured property: "pest or weed control at 1000 g/ha"
  Measurement: "0%"
- Molecule: "COC(=O)c1nc(-c2ccc(Cl)c(OC)c2F)nc2c1N(Cc1ccc(OC)cc1OC)C(C)N2Cc1ccc(OC)cc1OC (stereo not shown)"
  Measured property: "pest or weed control at 1000 g/ha"
  Measurement: "0%"
